Origin of the recorded values: ChEMBL document CHEMBL4417631

- EXPERIMENTAL SYSTEM: Interleukin-23 receptor (Homo sapiens, UniProt Q5VWK5)
- Sequence (Q5VWK5 whole entry): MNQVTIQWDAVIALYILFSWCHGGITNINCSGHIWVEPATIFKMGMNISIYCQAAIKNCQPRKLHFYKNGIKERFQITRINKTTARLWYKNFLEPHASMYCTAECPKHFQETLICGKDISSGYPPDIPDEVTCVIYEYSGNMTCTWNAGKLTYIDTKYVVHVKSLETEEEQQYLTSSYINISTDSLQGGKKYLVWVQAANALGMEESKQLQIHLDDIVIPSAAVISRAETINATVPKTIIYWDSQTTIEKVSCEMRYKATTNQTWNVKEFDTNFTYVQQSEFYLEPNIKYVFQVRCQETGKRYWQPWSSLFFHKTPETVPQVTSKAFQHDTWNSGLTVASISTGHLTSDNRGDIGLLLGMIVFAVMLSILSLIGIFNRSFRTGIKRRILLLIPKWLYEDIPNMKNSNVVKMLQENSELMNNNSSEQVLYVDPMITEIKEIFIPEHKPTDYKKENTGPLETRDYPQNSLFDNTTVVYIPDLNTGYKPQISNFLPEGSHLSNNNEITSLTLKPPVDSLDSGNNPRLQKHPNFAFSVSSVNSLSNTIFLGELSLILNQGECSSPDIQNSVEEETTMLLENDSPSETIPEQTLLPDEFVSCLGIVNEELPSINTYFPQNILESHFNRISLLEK
- EXPERIMENTAL DETAILS: Inhibition of interleukin-23 binding to human interleukin-23 receptor incubated for 2 hrs by competitive binding ELISA
PARAMETER: IC50

Entry `CC(=O)NCCCC[C@H](NC(=O)[C@](C)(CCCN)NC(=O)[C@H](Cc1c[nH]c2ccccc12)NC(=O)[C@H](Cc1ccc(O)cc1)NC(=O)[C@@H]1CSCC[C@H](NC(C)=O)C(=O)N[C@@H](CCC(N)=O)C(=O)N[C@@H]([C@@H](C)O)C(=O)N[C@@H](Cc2c[nH]c3ccccc23)C(=O)N[C@@H](CCC(N)=O)C(=O)N1)C(=O)N[C@@H](CC(N)=O)C(=O)NCC(N)=O` ; IC50 = 25 to 100 nM

Measured IC50 of CC(=O)NC1CC/C=C\CC(C(=O)N[C@@H](Cc2ccc(O)cc2)C(=O)N[C@@H](Cc2c[nH]c3ccccc23)C(=O)N[C@@H](CCCNC(=N)N)C(=O)N[C@@H](CCCCN)C(=O)N[C@@H](Cc2ccccc2)C(=O)NCC(=O)NCCOCC(=O)N[C@H](CCCCN)C(N)=O)NC(=O)[C@H](CCC(N)=O)NC(=O)[C@H](Cc2c[nH]c3ccccc23)NC(=O)[C@H]([C@@H](C)O)NC(=O)[C@H](CCCNC(=N)N)NC1=O (some centres not stated) : 100 to 1000 nM

###

# pIC50 values compiled below
- EXPERIMENTAL DETAILS: Inhibition of interleukin-23 binding to rat interleukin-23 receptor incubated for 2 hrs by competitive binding ELISA
pIC50: −log10 of the molar value.

Solved entries (count: 10):
>  <GIVEN SMILES>
COc1ccc(C[C@H](NC(=O)[C@H](Cc2ccc(OCCN)cc2)NC(=O)[C@@H]2CSCC[C@H](NC(C)=O)C(=O)N[C@@H](CCC(N)=O)C(=O)N[C@@H]([C@@H](C)O)C(=O)N[C@@H](Cc3c[nH]c4ccccc34)C(=O)N[C@@H](CCC(N)=O)C(=O)N2)C(=O)N[C@@](C)(CCCCN)C(=O)N[C@@H](CCCCNC(C)=O)C(=O)N[C@@H](CC(N)=O)C(=O)NCC(N)=O)cc1OC

>  <pIC50>
7.00 to 7.60

$$$$
>  <GIVEN SMILES>
COc1ccc(C[C@H](NC(=O)[C@@H]2CSCC[C@H](NC(C)=O)C(=O)N[C@@H](CCC(N)=O)C(=O)N[C@@H]([C@@H](C)O)C(=O)N[C@@H](Cc3c[nH]c4ccccc34)C(=O)N[C@@H](CCC(N)=O)C(=O)N2)C(=O)N[C@@H](Cc2c[nH]c3ccccc23)C(=O)N[C@@](C)(CCCN)C(=O)N[C@@H](CCC(=O)O)C(=O)N[C@@H](CC(N)=O)C(=O)NCC(N)=O)cc1

>  <pIC50>
7.00 to 7.60

$$$$
>  <GIVEN SMILES>
CC(=O)N[C@H]1CCSC[C@@H](C(=O)N[C@@H](Cc2ccc(O)cc2)C(=O)N[C@@H](Cc2c[nH]c3ccccc23)C(=O)N[C@@H](CCCNC(=N)N)C(=O)N[C@@H](CCCCN)C(=O)N[C@@H](Cc2ccccc2)C(=O)NCC(=O)NCCOCC(=O)N[C@H](CCCCN)C(N)=O)NC(=O)[C@H](CCC(N)=O)NC(=O)[C@H](Cc2c[nH]c3ccccc23)NC(=O)[C@H]([C@@H](C)O)NC(=O)[C@H](CCCNC(=N)N)NC1=O

>  <pIC50>
6.00 to 7.00

$$$$
>  <GIVEN SMILES>
CC(=O)NCCOc1ccc(C[C@H](NC(=O)[C@@H]2CSCC[C@H](NC(C)=O)C(=O)N[C@@H](CCC(N)=O)C(=O)N[C@@H]([C@@H](C)O)C(=O)N[C@@H](Cc3c[nH]c4ccccc34)C(=O)N[C@@H](CCC(N)=O)C(=O)N2)C(=O)N[C@@H](Cc2ccc3ccccc3c2)C(=O)N[C@@](C)(CCCCN)C(=O)N[C@@H](CCC(=O)O)C(=O)N[C@@H](CC(N)=O)C(=O)NCC(N)=O)cc1

>  <pIC50>
> 8.00

$$$$
>  <GIVEN SMILES>
CC(=O)NCCCC[C@H](NC(=O)[C@](C)(CCCCN)NC(=O)[C@H](Cc1ccc2ccccc2c1)NC(=O)[C@H](Cc1ccc(C(N)=O)cc1)NC(=O)[C@@H]1CSCC[C@H](NC(C)=O)C(=O)N[C@@H](CCC(N)=O)C(=O)N[C@@H]([C@@H](C)O)C(=O)N[C@@H](Cc2c[nH]c3ccccc23)C(=O)N[C@@H](CCC(N)=O)C(=O)N1)C(=O)N[C@@H](CC(N)=O)C(=O)NCC(N)=O

>  <pIC50>
7.00 to 7.60

$$$$
>  <GIVEN SMILES>
CC(=O)N[C@@H](CS)C(=O)N[C@@H](CO)C(=O)N[C@H](C(=O)N[C@@H](Cc1c[nH]c2ccccc12)C(=O)N[C@@H](CCC(=O)O)C(=O)N[C@@H](CS)C(=O)N[C@@H](Cc1ccc(O)cc1)C(=O)N[C@@H](Cc1c[nH]c2ccccc12)C(=O)N[C@@H](Cc1cnc[nH]1)C(=O)N[C@H](C(=O)N[C@@H](Cc1ccc(O)cc1)C(=O)NCC(N)=O)[C@@H](C)O)[C@@H](C)O

>  <pIC50>
6.54

$$$$
>  <GIVEN SMILES>
CC(=O)NCCCC[C@H](NC(=O)C(C)(C)NC(=O)[C@H](Cc1ccc2ccccc2c1)NC(=O)[C@H](Cc1ccc(OCCN)cc1)NC(=O)[C@@H]1CSCC[C@H](NC(C)=O)C(=O)N[C@@H](CCC(N)=O)C(=O)N[C@@H]([C@@H](C)O)C(=O)N[C@@H](Cc2c[nH]c3ccccc23)C(=O)N[C@@H](CCC(N)=O)C(=O)N1)C(=O)N[C@@H](CC(N)=O)C(=O)N[C@@H](C)C(N)=O

>  <pIC50>
7.60 to 8.00

$$$$
>  <GIVEN SMILES>
COc1ccc(C[C@H](NC(=O)[C@@H](NC(=O)[C@H](CCC(N)=O)NC(=O)[C@H](Cc2c[nH]c3ccccc23)NC(=O)[C@@H](NC(=O)[C@H](CCC(N)=O)NC(=O)[C@@H](NC(C)=O)C(C)(C)S)[C@@H](C)O)C(C)(C)S)C(=O)N[C@@H](Cc2c[nH]c3ccccc23)C(=O)N[C@@](C)(CCCCN)C(=O)N[C@@H](CCCCNC(C)=O)C(=O)N[C@@H](CC(N)=O)C(=O)NCC(N)=O)cc1

>  <pIC50>
7.00 to 7.60

$$$$
>  <GIVEN SMILES>
CC(=O)N[C@@H](CS)C(=O)N[C@@H](CCN)C(=O)N[C@H](C(=O)N[C@@H](Cc1c[nH]c2ccccc12)C(=O)N[C@@H](CCC(N)=O)C(=O)N[C@@H](CS)C(=O)N[C@@H](Cc1ccc(O)cc1)C(=O)N[C@@H](Cc1c[nH]c2ccccc12)C(=O)N[C@@H](CCCNC(=N)N)C(=O)N[C@H](C(=O)N[C@@H](Cc1ccccc1)C(=O)NCC(=O)NCCOCC(=O)N[C@H](CCCCN)C(N)=O)C(C)C)[C@@H](C)O

>  <pIC50>
7.29

$$$$
>  <GIVEN SMILES>
CC(=O)N[C@@H](CS)C(=O)N[C@@H](CCC(N)=O)C(=O)N[C@H](C(=O)N[C@@H](Cc1c[nH]c2ccccc12)C(=O)N[C@@H](CCC(N)=O)C(=O)N[C@@H](CS)C(=O)N[C@@H](Cc1ccc(O)cc1)C(=O)N[C@@H](Cc1cccc2ccccc12)C(=O)N[C@@](C)(CC(C)C)C(=O)N[C@@H](CCC(=O)O)C(=O)N[C@@H](CC(N)=O)C(=O)NCC(N)=O)[C@@H](C)O

>  <pIC50>
7.17

$$$$

Moving on to the next compound.
For record `CC(=O)N[C@H]1CCSC[C@@H](C(=O)N[C@@H](Cc2ccc(O)cc2)C(=O)N[C@@H](Cc2ccc3ccccc3c2)C(=O)N[C@@](C)(CC(C)C)C(=O)N[C@@H](CCC(=O)O)C(=O)N[C@@H](CC(N)=O)C(=O)NCC(N)=O)NC(=O)[C@H](CCC(N)=O)NC(=O)[C@H](Cc2c[nH]c3ccccc23)NC(=O)[C@H]([C@@H](C)O)NC(=O)[C@H](CCC(N)=O)NC1=O` the listed pIC50 is 7.60 to 8.00
